Taken from patent US8993631B2.

Would you mind telling me the reported pIC50 of each entry?
system_tested: recombinant human neutral endopeptidase (NEP, EC 3.4.24.11) (Homo sapiens (Human), UniProt P08473)
Sequence (P08473 whole entry): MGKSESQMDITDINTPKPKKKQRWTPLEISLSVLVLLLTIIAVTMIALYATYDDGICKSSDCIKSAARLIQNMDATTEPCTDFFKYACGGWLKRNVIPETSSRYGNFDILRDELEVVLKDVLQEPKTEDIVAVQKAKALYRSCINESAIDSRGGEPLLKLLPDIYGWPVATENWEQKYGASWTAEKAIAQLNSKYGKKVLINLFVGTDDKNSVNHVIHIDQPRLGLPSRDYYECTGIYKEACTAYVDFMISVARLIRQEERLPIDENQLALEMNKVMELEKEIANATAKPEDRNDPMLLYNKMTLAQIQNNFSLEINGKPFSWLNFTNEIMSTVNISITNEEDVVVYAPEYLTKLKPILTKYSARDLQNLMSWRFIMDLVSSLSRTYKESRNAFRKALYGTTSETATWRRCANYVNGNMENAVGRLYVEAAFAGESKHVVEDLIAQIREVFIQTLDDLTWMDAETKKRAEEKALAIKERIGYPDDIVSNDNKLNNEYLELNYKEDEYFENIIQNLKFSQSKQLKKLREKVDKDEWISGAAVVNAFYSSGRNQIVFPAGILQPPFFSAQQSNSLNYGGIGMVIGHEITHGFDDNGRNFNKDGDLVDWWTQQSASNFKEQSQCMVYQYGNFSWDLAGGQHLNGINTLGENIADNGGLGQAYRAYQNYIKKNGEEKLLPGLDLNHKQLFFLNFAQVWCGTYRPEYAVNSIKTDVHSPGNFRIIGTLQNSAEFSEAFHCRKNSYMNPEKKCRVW
assay_details: In vitro inhibition of recombinant human neutral endopeptidase (fluorescence lifetime assay)
assay_context: 1 hour pre-incubation, effect determined after 1 hour at room temperature, pH 7.4
Structures can show the parent of a compound that is named as a salt.
Numbers only, as −log10 of the molar value.

CCOC(=O)C[C@@H](Cc1ccc(-c2ccccc2)cc1)NC(=O)CN1CCC[C@H]1C(=O)OCc1ccccc1 [Example 3-11, trifluoroacetic acid salt]; 7.74
CCCCOC(=O)CCC(=O)N[C@@H](CC(=O)O)Cc1ccc(-c2cccc(Cl)c2)cc1; 7.82

# ---- query molecule ----
Input: Quickly give me recorded pIC50 for C[C@H](N[C@@H](Cc1ccc(-c2cccc(Cl)c2)cc1)C(=O)Nc1cc(O)no1)C(=O)O
Output: 8.62
